# study target: Human recombinant MAO-A (Homo sapiens)
# Sequence (P21397 1-527): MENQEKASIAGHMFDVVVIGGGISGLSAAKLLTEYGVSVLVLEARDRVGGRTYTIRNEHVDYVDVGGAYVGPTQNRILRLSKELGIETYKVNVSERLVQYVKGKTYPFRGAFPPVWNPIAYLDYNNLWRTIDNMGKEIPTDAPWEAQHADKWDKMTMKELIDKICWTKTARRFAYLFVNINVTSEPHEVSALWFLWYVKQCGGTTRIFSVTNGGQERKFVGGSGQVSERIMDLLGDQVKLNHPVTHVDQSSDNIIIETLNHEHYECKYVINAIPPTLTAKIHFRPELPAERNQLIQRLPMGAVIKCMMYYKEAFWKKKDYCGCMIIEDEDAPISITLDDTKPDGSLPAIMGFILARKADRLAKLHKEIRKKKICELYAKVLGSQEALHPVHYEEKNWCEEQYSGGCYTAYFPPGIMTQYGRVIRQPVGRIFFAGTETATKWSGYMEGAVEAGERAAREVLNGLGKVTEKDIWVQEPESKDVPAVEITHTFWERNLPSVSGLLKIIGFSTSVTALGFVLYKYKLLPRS
# run description: MAO-A kynuramine fluorescence assay
assay readout: pIC50
Answers are plain numbers, as −log10 of the molar value.

Record Nc1nnc(CN[C@@H]2C[C@H]2c2ccc(OCc3ccccc3)cc2)o1 (single isomer, unassigned) ; system Human recombinant MAO-A (Homo sapiens); pIC50 = 5.28
